Let's look at some compounds and their measured IC50.
# TEST_TARGET: K-Ras^G12C : hSOS1 interaction (Homo sapiens, UniProt Q07889)
# MEASUREMENT_NOTES: Biochemical assay 1: K-Ras^G12C interaction assay with hSOS1 (HTRF)
# Type: binding
# CONDITION_DESCRIPTION: read-out: Assay 1 (KRAS-SOS Interaction) activity expressed as IC50
# output: numeric value plus its unit

Look over these answered cases.
• COc1cc2nc(C)nc(N[C@H](C)c3cccc(-c4cncnc4)c3)c2cc1OC = 1540 nM
• COc1cc2nc(C)nc(N[C@H](C)c3ccccc3)c2cc1OC = 481 nM
• COc1cc2nc(C)nc(NC(C)c3cccs3)c2cc1OC (stereo not shown) [Example 207] = 2730 nM

# ---- query compound ----
IC50 measured on COc1cc2nc(C)nc(N[C@@H](C)c3ccc(-c4ccccc4C(=O)N(C)C)s3)c2cc1OC (racemic) = 2120 nM

---

Let's look at some compounds and their measured inhibition at 20 µM.
# TEST_TARGET: human SOS1 (loading of human K-Ras^G12C-GDP with fluorescent GTP-analog) (Homo sapiens, UniProt Q07889)
# MEASUREMENT_NOTES: Biochemical assay 3: K-Ras^G12C activation assay by hSOS1 (HTRF)
# CONDITION_DESCRIPTION: read-out: Assay 3 (KRAS-Activation by SOS no GTP) activity expressed as % inhibition at 20 μM; no GTP; at 20 μM
# output: bare number, implied unit %

Look over these answered cases.
* COc1cc2nc(C)nc(N[C@@H](C)c3ccc(-c4ccc(CO)s4)s3)c2cc1OC (stereo in doubt) | 43
* COc1cccc(-c2ccc([C@H](C)Nc3nc(C)nc4cc(OC)c(OC)cc34)s2)c1 (stereo in doubt) | 37
* COc1cc2nc(C)nc(N[C@@H](C)c3ccc(-c4cncnc4)s3)c2cc1OC (stereo in doubt) | 48

inhibition at 20 µM measured on COc1ccc2cc(C(C)Nc3nc(C)nc4cc(OC)c(OC)cc34)ccc2c1 (stereo not shown) = 48

---

# TEST_TARGET: human SOS1 (loading of human K-Ras^G12C-GDP with fluorescent GTP-analog) (Homo sapiens)
# MEASUREMENT_NOTES: Biochemical assay 3: K-Ras^G12C activation assay by hSOS1 (HTRF)
# CONDITION_DESCRIPTION: no GTP; read-out: Assay 3 (KRAS-Activation by SOS no GTP) activity expressed as IC50
The label is rule met for IC50 below 5 µM and rule not met for IC50 equal to or exceeding 5 µM.

These solved cases illustrate the format of a correct answer.
- COc1cc2nc(C)nc(N[C@H](C)c3cccc(-c4csc5ccccc45)c3)c2cc1OC [Example 87]: rule not met
- COc1cc2nc(C)nc(N[C@H](C)c3ccc(-c4ccccc4CCN)s3)c2cc1OC (stereo in doubt) [Example 357]: rule met

Identify whether the molecule COc1cc2nc(C)nc(N[C@H](C)c3cccc(-c4cc5ccccc5n4C)c3)c2cc1OC [Example 88] records IC50 below 5 µM. rule not met

Identify whether the molecule COc1cc2nc(C)nc(N[C@H](C)c3cccc(-n4ccnc4)c3)c2cc1OC [Example 340] records IC50 below 5 µM. rule met

Identify whether the molecule COC(=O)CNCc1ccccc1-c1ccc(C(C)Nc2nc(C)nc3cc(OC)c(OC)cc23)s1 (centres unmarked) [Example 281] records IC50 below 5 µM. rule met

Identify whether the molecule COc1cc2nc(C)nc(NC(C)c3ccc(-c4ccccc4CN4CCC(N(C)C)C4)s3)c2cc1OC (centres unmarked) [Example 238] records IC50 below 5 µM. rule met

Identify whether the molecule COc1cc2nc(C)nc(N[C@H](C)c3ccc(F)cc3)c2cc1OC [Example 12] records IC50 below 5 µM. rule met

Identify whether the molecule COc1cc2nc(C)nc(N[C@H](C)c3cccc(-c4cccc(C(=O)N(C)C)c4)c3)c2cc1OC [Example 106] records IC50 below 5 µM. rule met

Identify whether the molecule COc1cc2nc(C)nc(N[C@H](C)c3ccc(C4CC4)cc3)c2cc1OC [Example 197] records IC50 below 5 µM. rule met

Identify whether the molecule COc1cc2nc(C)nc(NC(C)c3ccc(-c4cnn(CC(N)=O)c4)s3)c2cc1OC (centres unmarked) [Example 249] records IC50 below 5 µM. rule not met

Identify whether the molecule COc1cc2nc(C)nc(N[C@H](C)c3cccc(-c4ccc(C(=O)NCCN(C)C)cc4)c3)c2cc1OC [Example 74] records IC50 below 5 µM. rule met

Identify whether the molecule COc1cc2nc(C)nc(NC(C)c3ccc(-c4ccccc4CN(C)CC(F)(F)F)s3)c2cc1OC (centres unmarked) [Example 321] records IC50 below 5 µM. rule not met

Identify whether the molecule COc1cc2nc(C)nc(N[C@H](C)c3cccc(C)c3)c2cc1OC [Example 190] records IC50 below 5 µM. rule met

---

Let's look at some molecules and their measured log10 IC50.
# TEST_TARGET: human SOS1 (nucleotide exchange of K-Ras^G12C) (Homo sapiens, UniProt Q07889)
# MEASUREMENT_NOTES: Biochemical assay 2: K-Ras^G12C activation assay by hSOS1 at high GTP concentration (HTRF)
# CONDITION_DESCRIPTION: high GTP; read-out: Assay 2 (KRAS-Activation by SOS high GTP) activity expressed as IC50
// stored as log10 of IC50 expressed in µM

Look over these answered cases.
• COCc1ccccc1-c1cccc([C@@H](C)Nc2nc(C)nc3cc(OC)c(OC)cc23)c1 = 0.28
• COc1cc2nc(C)nc(NC(C)c3csc(-c4cnn(CCN5CCCC5)c4)c3)c2cc1OC (stereo not shown) = 0.20
• COc1cc2nc(C)nc(N[C@H](C)c3cccc(-c4csc5ccccc45)c3)c2cc1OC = 0.54
• COc1cc2nc(C)nc(N[C@H](C)c3cccc(-c4cnc(N)nc4)c3)c2cc1OC = 0.44

Form field log10 IC50 for item COc1cc2nc(C)nc(NC(C)c3ccc(-c4ccc(F)cc4CNC(=O)c4ncc[nH]4)s3)c2cc1OC (stereo not shown) on human SOS1 (nucleotide exchange of K-Ras^G12C) (Homo sapiens, UniProt Q07889): 0.59

Form field log10 IC50 for item COc1cc2nc(C)nc(N[C@@H](C)c3ccc(-c4ccc(C(=O)N(C)C)cc4)s3)c2cc1OC (racemic) on human SOS1 (nucleotide exchange of K-Ras^G12C) (Homo sapiens, UniProt Q07889): 0.76

Form field log10 IC50 for item COc1cc2nc(C)nc(N[C@H](C)c3cccc(-c4ccc(-c5nnc(C)o5)cc4)c3)c2cc1OC on human SOS1 (nucleotide exchange of K-Ras^G12C) (Homo sapiens, UniProt Q07889): -0.11

Form field log10 IC50 for item COc1cc2nc(C)nc(N[C@H](C)c3cccc(-c4c(C)n[nH]c4C)c3)c2cc1OC on human SOS1 (nucleotide exchange of K-Ras^G12C) (Homo sapiens, UniProt Q07889): -0.11

Form field log10 IC50 for item COc1cc2nc(C)nc(N[C@@H](C)c3ccc(-c4ccncc4C)s3)c2cc1OC (racemic) on human SOS1 (nucleotide exchange of K-Ras^G12C) (Homo sapiens, UniProt Q07889): 0.11

Form field log10 IC50 for item CCCCOc1cccc(F)c1-c1cccc([C@@H](C)Nc2nc(C)nc3cc(OC)c(OC)cc23)c1 on human SOS1 (nucleotide exchange of K-Ras^G12C) (Homo sapiens, UniProt Q07889): 1.29

Form field log10 IC50 for item COc1cc2nc(C)nc(N[C@H](C)c3cccc(-c4ccc5cc[nH]c5c4)c3)c2cc1OC on human SOS1 (nucleotide exchange of K-Ras^G12C) (Homo sapiens, UniProt Q07889): -0.41

Form field log10 IC50 for item COc1cc2nc(C)nc(NC(C)c3cc(-c4ccn(CCO)n4)cs3)c2cc1OC (stereo not shown) on human SOS1 (nucleotide exchange of K-Ras^G12C) (Homo sapiens, UniProt Q07889): 0.37

Form field log10 IC50 for item COc1cc2nc(C)nc(NC(C)c3ccc(-c4ccccc4-c4cn[nH]c4)s3)c2cc1OC (stereo not shown) on human SOS1 (nucleotide exchange of K-Ras^G12C) (Homo sapiens, UniProt Q07889): 0.61

Form field log10 IC50 for item COc1cc2nc(C)nc(N[C@H](C)c3cccc(-c4ccc(S(C)(=O)=O)cc4)c3)c2cc1OC on human SOS1 (nucleotide exchange of K-Ras^G12C) (Homo sapiens, UniProt Q07889): -0.07

Form field log10 IC50 for item COc1cc2nc(C)nc(N[C@H](C)c3cccc(-c4c(F)ccc(C)c4Cl)c3)c2cc1OC on human SOS1 (nucleotide exchange of K-Ras^G12C) (Homo sapiens, UniProt Q07889): 0.24

Form field log10 IC50 for item COc1cc2nc(C)nc(N[C@H](C)c3cccc(-c4ccc(CNS(C)(=O)=O)cc4)c3)c2cc1OC on human SOS1 (nucleotide exchange of K-Ras^G12C) (Homo sapiens, UniProt Q07889): -0.18
